Here, each record is paired with measured EC50 data.
Biological target: F508delCFTR (Homo sapiens, UniProt P13569, DEL508-508)
Construct: expressed in transfected cells; host or cells: CFBE41o- human lung derived epithelial cells (CFBE41o-F508delCFTR-HRP), doxycycline-inducible
Sequence (P13569 with tags, fused parts or gaps DEL508-508): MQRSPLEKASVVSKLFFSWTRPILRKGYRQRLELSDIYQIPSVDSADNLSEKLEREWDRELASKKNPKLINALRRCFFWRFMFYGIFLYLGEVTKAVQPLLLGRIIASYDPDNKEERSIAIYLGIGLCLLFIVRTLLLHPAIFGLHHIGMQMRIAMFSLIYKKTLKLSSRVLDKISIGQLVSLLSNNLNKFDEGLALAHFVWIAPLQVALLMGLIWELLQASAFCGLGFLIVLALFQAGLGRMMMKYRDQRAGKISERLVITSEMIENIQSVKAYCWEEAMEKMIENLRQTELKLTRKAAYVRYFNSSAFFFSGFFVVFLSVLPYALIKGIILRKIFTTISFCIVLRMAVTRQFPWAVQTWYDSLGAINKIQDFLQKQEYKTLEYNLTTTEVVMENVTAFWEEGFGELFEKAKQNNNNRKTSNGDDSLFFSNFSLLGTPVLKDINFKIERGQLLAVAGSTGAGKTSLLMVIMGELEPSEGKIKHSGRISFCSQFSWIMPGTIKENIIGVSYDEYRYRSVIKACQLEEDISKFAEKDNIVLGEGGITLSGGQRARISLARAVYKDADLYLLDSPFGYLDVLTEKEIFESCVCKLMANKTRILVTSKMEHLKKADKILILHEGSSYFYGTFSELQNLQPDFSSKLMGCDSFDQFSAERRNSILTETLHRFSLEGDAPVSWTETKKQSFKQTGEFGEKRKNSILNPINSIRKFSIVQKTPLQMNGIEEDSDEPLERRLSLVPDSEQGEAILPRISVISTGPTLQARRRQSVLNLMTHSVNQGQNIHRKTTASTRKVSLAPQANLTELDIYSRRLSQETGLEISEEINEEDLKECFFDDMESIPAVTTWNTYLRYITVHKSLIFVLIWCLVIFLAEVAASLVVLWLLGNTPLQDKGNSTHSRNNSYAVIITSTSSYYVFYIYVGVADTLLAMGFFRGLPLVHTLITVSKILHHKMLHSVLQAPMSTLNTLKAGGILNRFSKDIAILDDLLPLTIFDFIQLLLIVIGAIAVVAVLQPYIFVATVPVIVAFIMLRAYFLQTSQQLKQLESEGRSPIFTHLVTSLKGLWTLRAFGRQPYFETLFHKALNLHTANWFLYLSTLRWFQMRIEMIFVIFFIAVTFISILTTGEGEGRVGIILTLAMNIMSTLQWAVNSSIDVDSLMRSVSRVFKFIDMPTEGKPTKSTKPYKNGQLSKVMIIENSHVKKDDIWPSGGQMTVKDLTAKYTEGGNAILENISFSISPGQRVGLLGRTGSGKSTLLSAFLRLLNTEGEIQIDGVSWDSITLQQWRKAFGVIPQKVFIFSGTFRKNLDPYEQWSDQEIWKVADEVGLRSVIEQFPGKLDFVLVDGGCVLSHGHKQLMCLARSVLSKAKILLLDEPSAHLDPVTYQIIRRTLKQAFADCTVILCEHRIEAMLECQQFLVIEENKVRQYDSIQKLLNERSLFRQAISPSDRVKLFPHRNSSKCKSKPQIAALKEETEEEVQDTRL
Assay: Cell Surface Expression-Horse Radish Peroxidase (CSE-HRP) Assay
Assay type: cell-based
Conditions: test compound without co-corrector; read-out: EC50 (without co-corrector)
Protocol: A cellular assay for measuring the F508delCFTR cell surface expression after correction with test compounds either without or with a co-corrector (2 μM of 3-[(2R,4R)-4-({[1-(2,2-difluoro-1,3-benzodioxol-5-yl)cyclopropyl]carbonyl}amino)-7-methoxy-3,4-dihydro-2H-chromen-2-yl]benzoic acid), was developed in human lung derived epithelial cell line (CFBE4lo−) (Veit G et al, (2012) Mol Biol Cell. 23(21): 4188-4202). […] The raw counts from the experiment were analyzed using Accelrys® Assay Explorer v3.3. […]
assay.endpoint: EC50

smiles.notation | reported.result
CC(C)Oc1cnc(C2CCC2)cc1C1(C(=O)NS(=O)(=O)c2cccc3c2CCCN3)CC1 | 3 to 10 µM
CC(C)Oc1ncc(N2CCCC2)cc1C1(C(=O)NS(=O)(=O)c2cccc3ncccc23)CC1 | < 3 µM
Cc1ccc2c(S(=O)(=O)NC(=O)C3(c4cc(C5CCC5)cnc4N4CCC(OC(C)C)CC4)CC3)cccc2n1 | < 3 µM
CCc1cnc(OCC2CC2)c(C2(C(=O)NS(=O)(=O)c3cccc4ncccc34)CC2)c1 | < 3 µM
CCc1ncc(OC)cc1C1(C(=O)NS(=O)(=O)c2cccc3ncccc23)CC1 | 3 to 10 µM
Cc1ccc2c(S(=O)(=O)NC(=O)C3(c4cc(C5CCC5)cnc4OCC(C)C)CC3)cccc2n1 | < 3 µM
CCOc1ncc(CC)cc1C1(C(=O)NS(=O)(=O)c2cccc3nc(C)ccc23)CC1 | < 3 µM
Cc1cnc(OCC2CC2)c(C2(C(=O)NS(=O)(=O)c3cccc4[nH]ccc34)CC2)c1 | < 3 µM
COc1nc(N(C)C)ccc1C1(C(=O)NS(=O)(=O)c2cccc3ncccc23)CC1 | 3 to 10 µM
CC(C)Oc1cnc(Cl)c(C2(C(=O)NS(=O)(=O)c3cccc4ncccc34)CC2)c1 | > 10 µM
CC(C)COc1ncc(C2CCC2)cc1C1(C(=O)NS(=O)(=O)c2cccc3[nH]ccc23)CC1 | < 3 µM
COc1cnc(OCC(C)C)c(C2(C(=O)NS(=O)(=O)c3cccc4ncccc34)CC2)c1 | < 3 µM
COc1cnc(OCC(C)C)c(C2(C(=O)NS(=O)(=O)c3cccc4[nH]ccc34)CC2)c1 | < 3 µM
CC(C)COc1ccc(OC(C)C)c(C2(C(=O)NS(=O)(=O)c3cccc4ncccc34)CC2)n1 | < 3 µM
COCCOc1ncc(C2CCC2)cc1C1(C(=O)NS(=O)(=O)c2cccc3nc(C)ccc23)CC1 | < 3 µM
CC(C)Oc1ncc(N(C)C)cc1C1(C(=O)NS(=O)(=O)c2cccc3ncccc23)CC1 | 3 to 10 µM
COc1cnc(N2CCCC2)c(C2(C(=O)NS(=O)(=O)c3cccc4ncccc34)CC2)c1 | 3 to 10 µM
CC(C)Oc1cnc(OC(C)C)c(C2(C(=O)NS(=O)(=O)c3cccc4[nH]ccc34)CC2)c1 | < 3 µM
CCOc1ncc(C2CCC2)cc1C1(C(=O)NS(=O)(=O)c2cccc3ncccc23)CC1 | 3 to 10 µM
COCCOc1ncc(C2CCC2)cc1C1(C(=O)NS(=O)(=O)c2cccc3ncccc23)CC1 | < 3 µM
CCc1cnc(OCC(C)C)c(C2(C(=O)NS(=O)(=O)c3cccc4nc(C)ccc34)CC2)c1 | < 3 µM
COc1cc(OC(C)C)c(C2(C(=O)NS(=O)(=O)c3cccc4[nH]ccc34)CC2)cn1 | 3 to 10 µM
COc1cc(C)c(C2(C(=O)NS(=O)(=O)c3cccc4ccccc34)CC2)cn1 | 3 to 10 µM
O=C(NS(=O)(=O)c1cccc2[nH]ccc12)C1(c2cc(C3CCC3)cnc2N2CCCC2)CC1 | < 3 µM
CN1CCN(c2ncc(C3CCC3)cc2C2(C(=O)NS(=O)(=O)c3cccc4ncccc34)CC2)CC1 | > 10 µM
CCc1cnc(N2CCC(OC)CC2)c(C2(C(=O)NS(=O)(=O)c3cccc4[nH]ccc34)CC2)c1 | 3 to 10 µM
Cc1cnc(N2CCN(C)CC2)c(C2(C(=O)NS(=O)(=O)c3cccc4ncccc34)CC2)c1 | > 10 µM
CN1CCN(c2ncc(C3CC3)cc2C2(C(=O)NS(=O)(=O)c3cccc4[nH]ccc34)CC2)CC1 | > 10 µM
Cc1cnc(OCC2CC2)c(C2(C(=O)NS(=O)(=O)c3cccc4nc(C)ccc34)CC2)c1 | 3 to 10 µM
Cc1cnc(N2CCCC2)c(C2(C(=O)NS(=O)(=O)c3cccc4[nH]ccc34)CC2)c1 | 3 to 10 µM
CCc1cnc(N(C)C)c(C2(C(=O)NS(=O)(=O)c3cccc4ncccc34)CC2)c1 | 3 to 10 µM

====

Here, each record is paired with measured Emax data.
Target: F508delCFTR (Homo sapiens, UniProt P13569, DEL508-508)
Construct: expressed in transfected cells; host or cells: CFBE41o- human lung derived epithelial cells (CFBE41o-F508delCFTR-HRP), doxycycline-inducible
Assay: Cell Surface Expression-Horse Radish Peroxidase (CSE-HRP) Assay;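 for Maximum % activity (without co-corrector): % of on-plate positive control chromenyl benzoic acid corrector at 2 or 3 µM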
Format: cell-based
Settings: without co-corrector; maximum at any tested concentration; read-out: Maximum % activity (without co-corrector)
Method: A cellular assay for measuring the F508delCFTR cell surface expression after correction with test compounds either without or with a co-corrector (2 μM of 3-[(2R,4R)-4-({[1-(2,2-difluoro-1,3-benzodioxol-5-yl)cyclopropyl]carbonyl}amino)-7-methoxy-3,4-dihydro-2H-chromen-2-yl]benzoic acid), was developed in human lung derived epithelial cell line (CFBE4lo−) (Veit G et al, (2012) Mol Biol Cell. 23(21): 4188-4202). […] The raw counts from the experiment were analyzed using Accelrys® Assay Explorer v3.3. […]

compound | subject.of.test | Emax
Cc1ccc2c(S(=O)(=O)NC(=O)C3(c4cc(N(C)C)cnc4OCC(C)C)CC3)cccc2n1 | F508delCFTR (Homo sapiens, UniProt P13569, DEL508-508) | > 150%
CCOC(C)(C)c1ccc(OC)c(C2(C(=O)NS(=O)(=O)c3cccc4ncccc34)CC2)c1 | F508delCFTR (Homo sapiens, UniProt P13569, DEL508-508) | > 150%
COc1cccc(C)c1C1(C(=O)NS(=O)(=O)c2cccc3c2ccn3C)CC1 | F508delCFTR (Homo sapiens, UniProt P13569, DEL508-508) | > 150%
Cc1ccc(OC2COC2)c(C2(C(=O)NS(=O)(=O)c3cccc4nc(C)ccc34)CC2)c1 | F508delCFTR (Homo sapiens, UniProt P13569, DEL508-508) | > 150%
Cc1ccc(O[C@@H]2CCOC2)c(C2(C(=O)NS(=O)(=O)c3cccc4nc(C)ccc34)CC2)c1 | F508delCFTR (Homo sapiens, UniProt P13569, DEL508-508) | > 150%
CN(C)c1ncc(C(F)(F)F)cc1C1(C(=O)NS(=O)(=O)c2cccc3ccccc23)CC1 | F508delCFTR (Homo sapiens, UniProt P13569, DEL508-508) | > 150%
COc1ccccc1C1(C(=O)NS(=O)(=O)c2cccc3ncccc23)CCC1 | F508delCFTR (Homo sapiens, UniProt P13569, DEL508-508) | > 150%
COc1ccc(OC2CCC2)cc1C1(C(=O)NS(=O)(=O)c2cccc3ncccc23)CC1 | F508delCFTR (Homo sapiens, UniProt P13569, DEL508-508) | > 150%
COc1ccc(C2CCC2)c(C2(C(=O)NS(=O)(=O)c3cccc4ncccc34)CC2)c1 | F508delCFTR (Homo sapiens, UniProt P13569, DEL508-508) | > 150%
O=C(NS(=O)(=O)c1ccccc1)C1(c2ccc(Cl)cc2)CCC1 | F508delCFTR (Homo sapiens, UniProt P13569, DEL508-508) | < 50%
Cc1ccc(OC(C)C)c(C2(C(=O)NS(=O)(=O)c3cccc4[nH]ccc34)CC2)c1 | F508delCFTR (Homo sapiens, UniProt P13569, DEL508-508) | > 150%
CCOc1ccc(C)cc1C1(C(=O)NS(=O)(=O)c2cccc3nc(C)ccc23)CC1 | F508delCFTR (Homo sapiens, UniProt P13569, DEL508-508) | > 150%
COc1cc(OC(C)C)c(C2(C(=O)NS(=O)(=O)c3cccc4ncccc34)CC2)cn1 | F508delCFTR (Homo sapiens, UniProt P13569, DEL508-508) | > 150%
CC(C)COc1cnc(C2CC2)c(C2(C(=O)NS(=O)(=O)c3cccc4ncccc34)CC2)c1 | F508delCFTR (Homo sapiens, UniProt P13569, DEL508-508) | > 150%
COc1ccc(C)c(OC)c1C1(C(=O)NS(=O)(=O)c2cccc3ccccc23)CC1 | F508delCFTR (Homo sapiens, UniProt P13569, DEL508-508) | > 150%
O=C1CCCN1c1ccc(S(=O)(=O)NC(=O)C2(c3ccc(Cl)cc3Cl)CC2)cc1 | F508delCFTR (Homo sapiens, UniProt P13569, DEL508-508) | < 50%
COC[C@@H](C)Oc1ccc(C)cc1C1(C(=O)NS(=O)(=O)c2cccc3nc(C)ccc23)CC1 | F508delCFTR (Homo sapiens, UniProt P13569, DEL508-508) | > 150%
COc1ccc(C2CCC2)cc1C1(C(=O)NS(=O)(=O)c2cccc3c2CCN3C)CC1 | F508delCFTR (Homo sapiens, UniProt P13569, DEL508-508) | > 150%
CC(C)COc1ccc(N(C)C)c(C2(C(=O)NS(=O)(=O)c3cccc4ncccc34)CC2)n1 | F508delCFTR (Homo sapiens, UniProt P13569, DEL508-508) | > 150%
COc1cc(C2CCC2)cc(OC)c1C1(C(=O)NS(=O)(=O)c2cccc3ncn(C)c23)CC1 | F508delCFTR (Homo sapiens, UniProt P13569, DEL508-508) | > 150%
CC(=O)N1CCC(S(=O)(=O)NC(=O)C2(c3ccc(Cl)cc3Cl)CC2)CC1 | F508delCFTR (Homo sapiens, UniProt P13569, DEL508-508) | < 50%
O=C(NS(=O)(=O)c1ccc(-c2ccno2)s1)C1(c2ccc(Cl)cc2Cl)CC1 | F508delCFTR (Homo sapiens, UniProt P13569, DEL508-508) | < 50%
COc1ccc(C2COC2)cc1C1(C(=O)NS(=O)(=O)c2cccc3ncccc23)CC1 | F508delCFTR (Homo sapiens, UniProt P13569, DEL508-508) | 50 to 150%
COc1ccc(C23CC(C2)C3)cc1C1(C(=O)NS(=O)(=O)c2cccc3c2CCCN3)CC1 | F508delCFTR (Homo sapiens, UniProt P13569, DEL508-508) | > 150%
COc1cc(C2CCC2)cc(OC)c1C1(C(=O)NS(=O)(=O)c2cccc3[nH]ccc23)CC1 | F508delCFTR (Homo sapiens, UniProt P13569, DEL508-508) | > 150%
COc1ccc(C)c(OC)c1C1(C(=O)NS(=O)(=O)c2cccc3[nH]ccc23)CC1 | F508delCFTR (Homo sapiens, UniProt P13569, DEL508-508) | > 150%
O=C(NS(=O)(=O)c1cccc(C(F)(F)F)c1)C1(c2ccc(Cl)cc2Cl)CC1 | F508delCFTR (Homo sapiens, UniProt P13569, DEL508-508) | < 50%
COc1cccc(C(C)C)c1C1(C(=O)NS(=O)(=O)c2cccc3ncccc23)CC1 | F508delCFTR (Homo sapiens, UniProt P13569, DEL508-508) | > 150%
Cc1ccccc1S(=O)(=O)NC(=O)C1(c2ccc(Cl)cc2)CC1 | F508delCFTR (Homo sapiens, UniProt P13569, DEL508-508) | < 50%
O=C(OCc1ccccc1)N1CCC(S(=O)(=O)NC(=O)C2(c3ccc(Cl)c(Cl)c3)CC2)CC1 | F508delCFTR (Homo sapiens, UniProt P13569, DEL508-508) | < 50%
COc1ccc(C(OC)C(F)(F)F)cc1C1(C(=O)NS(=O)(=O)c2cccc3ncccc23)CC1 (centres unmarked) | F508delCFTR (Homo sapiens, UniProt P13569, DEL508-508) | > 150%
COc1cc(C2CCC2)cc(OC)c1C1(C(=O)NS(=O)(=O)c2cccc3[nH]ncc23)CC1 | F508delCFTR (Homo sapiens, UniProt P13569, DEL508-508) | > 150%
